assay notes: Chemical stability in DMSO solution
Assay type: physicochemical
settings: Table 2; stored in DMSO solution for 28 days; n = 1
Excerpt: Although several compounds shown in Table 2 satisfy the rapid clearance requirements of a soft drug and retain primary activity, none were suitable for progression into in vivo studies due to chemical stability liabilities. […] The instability in solution represented a major development hurdle as topical drugs are usually stored in solution or suspensions (cream, ointment, paste, lotion, or gels), rather than in solid form, as is the case for oral drugs. […]
test readout: stability (% decrease in purity) (%)

CCC/N=C1\S/C(=C\c2ccc(O)c(C#N)c2)C(=O)N1c1ccccc1C ... 20

A. CCC/N=C1\S/C(=C\c2ccc(O)c(Br)c2)C(=O)N1c1ccccc1C
B. CCC/N=C1\S/C(=C\c2ccc(O)c(C(C)C)c2)C(=O)N1c1ccccc1C
C. CCC/N=C1\S/C(=C\c2ccc(O)c(C(F)(F)F)c2)C(=O)N1c1ccccc1C
Please list the entries, largest stability (% decrease in purity) first. // format: requested-order list of labels
A, C, B
(A: 16%, C: 10%, B: 3%)

FYI, the data here is from paper PMC6421539.
